Assayed System: hPK-M2 (Homo sapiens, UniProt P14618)
Sequence (P14618 whole entry): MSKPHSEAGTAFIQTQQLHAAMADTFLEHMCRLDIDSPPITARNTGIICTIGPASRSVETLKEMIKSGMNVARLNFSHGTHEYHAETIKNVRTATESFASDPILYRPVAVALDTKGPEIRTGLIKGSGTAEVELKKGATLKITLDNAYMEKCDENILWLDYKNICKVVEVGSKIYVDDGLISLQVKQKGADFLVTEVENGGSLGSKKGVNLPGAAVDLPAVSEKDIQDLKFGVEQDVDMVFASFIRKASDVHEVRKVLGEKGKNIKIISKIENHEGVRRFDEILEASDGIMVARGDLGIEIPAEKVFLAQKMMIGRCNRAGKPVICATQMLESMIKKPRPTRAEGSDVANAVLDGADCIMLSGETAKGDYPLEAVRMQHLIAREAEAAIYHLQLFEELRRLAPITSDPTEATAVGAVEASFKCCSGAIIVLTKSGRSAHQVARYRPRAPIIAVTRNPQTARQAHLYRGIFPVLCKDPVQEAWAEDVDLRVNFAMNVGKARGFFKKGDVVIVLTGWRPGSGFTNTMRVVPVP
Procedure Text: Luminescent pyruvate kinase-luciferase coupled assay (KinaseGlo)
Type: biochemical
Study Conditions: KinaseGlo; % activation at 57 μM of compound; read-out: hPK, M2 Max. Res.
Each item that follows carries a reported activation at 57 µM.
# value in %; strip the unit string

• O=S(=O)(N[C@H]1CC[C@@H](NS(=O)(=O)c2c(F)cccc2F)CC1)c1ccc2c(c1)OCCO2 = 60.7
• O=S(=O)(c1ccc2c(c1)OCCO2)N1CCCN(S(=O)(=O)c2c(F)cccc2F)CC1 = 120
• O=S(=O)(c1ccc2c(c1)OCCO2)N1CCN(S(=O)(=O)c2ccccc2F)CC1 = 114
• Nc1ccc(S(=O)(=O)N2CCN(S(=O)(=O)c3c(F)cccc3F)CC2)cc1 = 82.6

Asked: Could you tell me which activation at 57 µM is on file for COc1ccc(Cn2ncc3c4sc(C)cc4n(C)c3c2=O)cc1 ?
Given back: 96.2

Asked: And Cc1cc2c(s1)c1cnn(Cc3c(F)c(F)cc(F)c3F)c(=O)c1n2C ?
Given back: 59.4

Asked: And O=S(=O)(NCCCCCNS(=O)(=O)c1c(F)cccc1F)c1ccc2c(c1)OCCO2 ?
Given back: 114

Asked: And Cn1c2cc(CO)sc2c2cnn(Cc3ccccc3F)c(=O)c21 ?
Given back: 103

###

Each item that follows carries a reported log10 of AC50.
Assayed System: hPK-M2 (Homo sapiens, UniProt P14618)
Procedure Text: Luminescent pyruvate kinase-luciferase coupled assay (KinaseGlo)
Format: biochemical
Study Conditions: luminescent pyruvate kinase-luciferase coupled assay (KinaseGlo), tables; read-out: hPK, M2 AC50
Method: Luminescent Pyruvate Kinase-Luciferase Coupled Assay. Production of a luminescent signal based on the generation of ATP by pyruvate kinase was determined by using the ATP-dependent enzyme firefly luciferase. […] Microtiter plates were incubated at r.t. for 1 hour and 2 uL of luciferase detection mix (Kinase-Glo, Promega at 4° C. protected from light) was added and luminescence was read with a ViewLux (Perkin Elmer) using a 5 second exposure/plate. […]
Hello, just confirming the data are log10 of AC50 with units of nM.

- Cc1cc2c(s1)c1cnn(Cc3ccc(C)c(F)c3F)c(=O)c1n2C [Compound 119]: 2.03
- CC(=O)Nc1ccc(S(=O)(=O)N2CCCN(S(=O)(=O)c3ccc4c(c3)OCCO4)CC2)cc1 [Compound 132]: 3.61
- C[C@@H]1CN(S(=O)(=O)c2c(F)cccc2F)CCN1S(=O)(=O)c1ccc2c(c1)OCCO2 [Compound 46]: 3.49

Proceed to the following item.
Asked: Could you tell me which log10 of AC50 is on file for Cc1cc2c(s1)c1cnn(Cc3ccccc3Cl)c(=O)c1n2C [Compound 106] ?
Given back: 2.47

###

Each item that follows carries a reported LDH hPK, M2 Max. Res..
Assayed System: hPK-M2 (Homo sapiens)
Procedure Text: Fluorescent pyruvate kinase-lactate dehydrogenase (LDH) coupled secondary assay
Format: biochemical
Study Conditions: % activation at 57 μM of compound
# value in %; strip the unit string

These recorded examples may help you get a feel for the data.
* Nc1ccc(S(=O)(=O)N2CCN(S(=O)(=O)c3ccc4c(c3)OCCO4)CC2)cc1 [Compound 151] | 174.46
* Nc1ccc(S(=O)(=O)N2CCCN(S(=O)(=O)c3ccc4c(c3)OCCO4)CC2)cc1 [Compound 125] | 131.59

Proceed to the following item.
Asked: Could you tell me which LDH hPK, M2 Max. Res. is on file for COc1cc(F)c(S(=O)(=O)N2CCCN(S(=O)(=O)c3ccc(N)cc3)CC2)c(F)c1 [Compound 143] ?
Given back: 150.25
